Below, each entry is listed alongside its reported pEC50.
# System tested: human GPR142 receptor (Homo sapiens, UniProt Q7Z601)
# Sequence (Q7Z601 whole entry): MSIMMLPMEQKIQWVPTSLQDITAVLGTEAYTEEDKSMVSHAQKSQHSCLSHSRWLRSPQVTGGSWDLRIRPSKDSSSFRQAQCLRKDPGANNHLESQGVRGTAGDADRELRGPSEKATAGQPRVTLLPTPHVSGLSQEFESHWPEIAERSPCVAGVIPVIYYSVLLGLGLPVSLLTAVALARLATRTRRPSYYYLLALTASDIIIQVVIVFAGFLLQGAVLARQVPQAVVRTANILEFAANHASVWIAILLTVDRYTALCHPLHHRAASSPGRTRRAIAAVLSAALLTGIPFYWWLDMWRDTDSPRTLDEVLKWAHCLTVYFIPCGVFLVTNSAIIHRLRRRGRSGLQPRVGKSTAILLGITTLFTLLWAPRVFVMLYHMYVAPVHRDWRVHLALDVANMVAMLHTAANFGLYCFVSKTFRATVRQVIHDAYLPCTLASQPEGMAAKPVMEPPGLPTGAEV
# Test: IP1 accumulation HTRF assay for GPR142 agonist activity in HEK293 FLPinTREX cells
# Protocol conditions: HEK293 FLPinTREX cells stably expressing human GPR142, IP1 generation (IP-One HTRF), 60 minutes at 37° C.
Interpret pEC50 as the negative base-10 log of the concentration measured in mol/L.

Prompt line: Identify measured pEC50 associated with `Cc1ccc(C(=O)Nc2cccc(OC(F)(F)F)c2)cc1-n1cc(-c2cncn2C)nn1`
Response line: 9.68

***
Prompt line: Identify measured pEC50 associated with `Cn1cncc1-c1cn(-c2cccc(C(=O)Nc3cccc(OC(F)(F)C(F)F)c3)c2)nn1`
Response line: 9.19

Prompt line: Identify measured pEC50 associated with `Cn1cncc1-c1cn(-c2cccc(C(=O)Nc3cccc(C(F)(F)F)c3F)c2)nn1`
Response line: 9.35

----------
Below, each entry is listed alongside its reported EC50.
# System tested: human GPR142 receptor (Homo sapiens, UniProt Q7Z601)
# Test: IP1 accumulation HTRF assay for GPR142 agonist activity in HEK293 FLPinTREX cells
# Protocol conditions: HEK293 FLPinTREX cells stably expressing human GPR142, IP1 generation (IP-One HTRF), 60 minutes at 37° C.
# Method: This assay allows monitoring activity of compounds acting on Gq-coupled receptors. The principle of the assay is based on the competition between IP1 generated in the cells with d2-labeled IP1 for binding to a monoclonal anti-IP1 […] cryptate that allows for measuring quantitative changes using the Homogeneous Time Resolved Fluorescence. LiCl is added to the cell stimulation buffer, causing IP1 to accumulate upon receptor activation. […]
Write the number in nM without appending the unit.

Consider the reported EC50 for these compounds:
Prompt line: Identify measured EC50 associated with `Cc1ncn(C)c1-c1cn(-c2cccc(C(=O)Nc3cccc(OC(F)(F)F)c3)c2)nn1`
Response line: 0.64

Prompt line: Identify measured EC50 associated with `Cn1cncc1-c1cn(-c2cccc(C(=O)Nc3cccc(Cl)c3)c2)nn1`
Response line: 0.21

Prompt line: Identify measured EC50 associated with `Cn1cncc1-c1cn(-c2cccc(C(=O)Nc3cccc(OC(F)(F)F)c3)c2)nn1`
Response line: 0.47

Prompt line: Identify measured EC50 associated with `Cc1cccc(NC(=O)c2cccc(-n3cc(-c4cncn4C)nn3)c2)c1`
Response line: 0.37

Prompt line: Identify measured EC50 associated with `Cc1ccc(C(=O)Nc2cccc(Cl)c2)cc1-n1cc(-c2cncn2C)nn1`
Response line: 0.37

Prompt line: Identify measured EC50 associated with `Cc1ccc(C(=O)Nc2cccc(C(F)(F)F)c2)cc1-n1cc(-c2cncn2C)nn1`
Response line: 0.4

Prompt line: Identify measured EC50 associated with `COc1cccc(NC(=O)c2cccc(-n3cc(-c4cncn4C)nn3)c2)c1`
Response line: 0.86

Prompt line: Identify measured EC50 associated with `Cn1cncc1-c1cn(-c2cccc(C(=O)Nc3cccc(C#N)c3)c2)nn1`
Response line: 0.74

***
Prompt line: Identify measured EC50 associated with `Cc1ncn(C)c1-c1cn(-c2cccc(C(=O)Nc3cccc(C(F)(F)F)c3)c2)nn1`
Response line: 0.63
